Hello, the source for this data is patent EP0117302A2, in case you need it.

- PROTOCOL_NOTES: Acute toxicity (approximate LD50)
- CONDITIONS_USED: rat, in vivo, ip, rats
MEASUREMENT_TYPE: LD50

Fill blank: measured LD50 of the molecule CC(CN1c2ccccc2Sc2ccc(CC(=O)O)cc21)N(C)C (stereo not shown) is ____.
~210 mg/kg
